B1: TPR t1 (parent)
chain: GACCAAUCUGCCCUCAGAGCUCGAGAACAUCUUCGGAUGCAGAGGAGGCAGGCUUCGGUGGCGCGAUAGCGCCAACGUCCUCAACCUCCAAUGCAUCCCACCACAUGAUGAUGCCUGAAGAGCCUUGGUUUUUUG

variants of: B1; assay: polymerase ribozyme fitness, log enrichment relative to wild type (log ratio); higher = more active; in vitro selection for triplet polymerase activity
Can you tell me polymerase ribozyme fitness (log ratio) for the items I'm about to list?

Worked cases, answers included:
>>> result("C64U U109A")
-4.01
>>> result("A24G G120U")
-1.65

For every item below, please supply its polymerase ribozyme fitness (log ratio).
1. A29G A41U A46C G63C
2. U112A G122A
3. C11G A29C U55G A84G G113A

[-5.41, -0.631, -4.47]
